Origin of values: the supplement of paper PMC9170038

system: MS2 coat protein; assay: apparent KD of MS2 coat protein, switch ON state; designed switch direction (-1 OFF switch, 1 ON switch): -1; higher = weaker reporter binding; conditions: FMN input: 0 or 200 uM; Eterna round: R93 (includes R88 designs)
Experimental Endpoint: apparent KD of MS2 coat protein (nM)
Dear colleague, please return just the value in nM, with no unit written.

AGUCAUACAGGAUAUACAUGAGGAUCACCCAUGUUUAUCCUAAAAUAAAAAAACUCAUGUAGAAGGGUAUGACA [EX3 214: Super Stable 14] : 13
AAAAAACAUGAGGAUCACCCAUGUGAGGAUAUACAAAACCCAUAUAAAAAGGGAAAAAGUAGAAGGCACAAAAA [wbt round 1 mod 11] : 27.5
GGUUGGCGAGGAUAUACAUGAGGAUCACCCAUGUGAGAGAAAAAAGUGAGAACGAAAAGUAGAAGGCGCUGACG [salish99-ex3-25] : 23.5
GGUUGGCGAGGAUAUACAUGAGGAUCACCCAUGUGAGAGAAAAAAGUGAGGAGGAGCAGUAGAAGGCGCUGACG [salish99-ex3-19] : 59.3
CUCUUGUAAGGAUAUUAAUGAAAUGAAGUGAAAGAAAAGAAUAAGAAGGUACAUGAGGAUCACCCAUGUUAGAA [EteRNA is fun!] : 28.9

Now look at this entry.
Which apparent KD of MS2 coat protein reading was recorded for the sequence AAGAUGUUAGGAUAUGCUGCUCGUCACAAAAGUGAUGAGUAGCAGAAGGGACAUGAGGAUCACCCAUGUAAAGA [JL eternac mod 6] ?
45.5

----------
tested on: MS2 coat protein; assay: apparent KD of MS2 coat protein; designed switch direction (-1 OFF switch, 1 ON switch): 1; higher = weaker reporter binding; conditions: Eterna round: R98; input ligand: none
Here the recorded apparent KD of MS2 coat protein is given for each entry.
Dear colleague, please return just the value in nM, with no unit written.

AUAAUAACUUGAGGAUAUGCUCAGGAAUACUGAGCAGAAGGCAGGGAAACCUGAGGAUCACCCAGGUAACUGGAAUAAUAAUAA [Same State NG1 - A3C, U17G Submission 4A] : 25.8
GCUGCUAUCGCAGGAUAUUACAUGGGAAAUAAAACAUGAGGAUCACCCAUGUUAAAUAUCGUAAAUAAGAAGGGCGAUAGCAGC [Lame State 2 - Jieux - Same State NG 2] : 1120
UUUGGGAGCACAGGAUAUGGCGCCUCGGAGGCGCCAGAAGGGUGAUUCUGUUGGUGGCCACAUGAGGAUCACCCAUGUGCCUCC [Rienorarve] : 15.9
CGAGACACUUGAGGAUAUGCUCAGGAAUACUGAGCAGAAGGCAGGAAAACCUGAGGAUCACCCAGGUAACUGGAAAGUCUCGAA [Same State NG1 - A3C, U17G Submission 5E-G46A] : 19.6
UAUAUAUAAUAUAUUAACAUGAGGAUCACCCAUGUCGCUAGACAGGAUAUAUUUAAUAUUAUUAAGUAGAAGGGUCAUAUAAUU [LRO007_SS NG 3] : 78.6
GGCCGGCAGCUAGGAUAUGGGCGGUCACAUGAGGAUCACCCAUGUCAACAUCAAAACCAGAUUAACCAGAAGGAGCUGCGAGUU [Arza] : 27.6
GCCAUCGCAUGAGGAUAUGGCACCGUUUCGGUGCCAGAAGGCAUGUCAUAAGACAUGAGGAUCACCCAUGUAAAUAAGAUGGCA [JanderMod 3 - Jieux - Same State NG 1] : 715
GGUCCAACAUGAGGAUAUGGCACCUUAUUGGUGCCAGAAGGCGUGUCUAUAGACAUGAGGAUCACCCAUGUAAUAAAUUGGACC [SameState #22 NG1] : 796

Now look at this entry.
Which apparent KD of MS2 coat protein reading was recorded for the sequence AUAAUAACUUGAGGAUAUGCUCAGGAAUACUGAGCAGAAGGCAGGGAAACCUGAGGAUCACCCAGGUGAAUAAUAAUAAUAAUA [Same State NG1 - A3C, U17G Submission 1A] ?
23.4
